Each item that follows carries a reported pEC50.
Target: T1, beta-catenin (Homo sapiens (Human), UniProt P35222 1-781)
T1 construct: The FP protocol says full-length beta-Catenin (Uniprot ID P35222); also called full-length beta-Catenin; bCat
T1 sequence: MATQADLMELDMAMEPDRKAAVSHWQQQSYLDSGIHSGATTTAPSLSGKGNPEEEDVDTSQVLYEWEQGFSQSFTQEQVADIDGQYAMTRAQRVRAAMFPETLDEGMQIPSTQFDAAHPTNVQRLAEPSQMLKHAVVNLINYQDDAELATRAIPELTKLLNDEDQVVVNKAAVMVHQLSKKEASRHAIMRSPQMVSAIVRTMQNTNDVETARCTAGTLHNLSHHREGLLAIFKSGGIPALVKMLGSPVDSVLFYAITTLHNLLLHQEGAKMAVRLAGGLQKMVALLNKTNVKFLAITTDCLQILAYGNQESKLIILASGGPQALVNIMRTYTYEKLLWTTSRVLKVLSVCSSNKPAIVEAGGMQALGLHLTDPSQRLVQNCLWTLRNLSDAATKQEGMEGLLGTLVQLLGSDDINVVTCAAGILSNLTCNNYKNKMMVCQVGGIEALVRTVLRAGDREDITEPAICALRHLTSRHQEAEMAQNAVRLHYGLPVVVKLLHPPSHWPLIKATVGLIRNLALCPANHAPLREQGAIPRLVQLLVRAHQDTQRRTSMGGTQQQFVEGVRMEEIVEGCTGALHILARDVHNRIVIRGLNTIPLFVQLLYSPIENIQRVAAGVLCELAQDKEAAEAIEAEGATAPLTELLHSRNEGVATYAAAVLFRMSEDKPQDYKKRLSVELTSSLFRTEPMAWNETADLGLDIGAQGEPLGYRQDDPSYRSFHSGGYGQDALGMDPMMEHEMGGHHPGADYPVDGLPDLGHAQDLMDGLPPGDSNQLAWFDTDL
Test: fluorescence polarization competition; full-length beta-catenin with 5FAM-TCF4(10-53) probe as competitor
Starred links: 1 amine or outer side, 2 acyl side, 3 side chain; linkers in the order of their positions; H or OH if unused. Positions of bridges follow the written chain, without caps; N, C: chain ends. Non-standard residues stand in square brackets, D forms with d. Primed or numbered codes have the meaning given here. PyrS2″ = (S)-3-amino-1-((pent-4-en-1-yloxy)carbonyl)pyrrolidine-3-carboxylic acid (stapling residue), C=CCCCOC(=O)N1CC[C@@](N[*:1])(C(=O)[*:2])C1; B5(4) = 2,2-bis(4-pentenyl)glycine = 2-amino-2-(pent-4-en-1-yl)hept-6-enoic acid (stitching residue), C=CCCCC(CCCC=C)(N[*:1])C(=O)[*:2]; PyrS2 = (S)-3-amino-1-((pent-4-en-1-yloxy)carbonyl)pyrrolidine-3-carboxylic acid, C=CCCCOC(=O)N1CC[C@@](N[*:1])(C(=O)[*:2])C1; B5(19) = 2-amino-2-(pent-4-en-1-yl)hept-6-enoic acid (bis(4-pentenyl)glycine), C=CCCCC(CCCC=C)(N[*:1])C(=O)[*:2]; Phe(2-Cl) = N[C@@H](Cc1ccccc1Cl)C(=O)O; Bta = N[C@@H](Cc1csc2ccccc12)C(=O)O; αAllylPro = C=CC[C@@]1(C(=O)O)CCCN1
Answer as the number alone; pEC50 is minus log10 of concentration in mol/L.

Field pEC50 (entry Ac-[αAllylPro]DL[B5(19)]DDAAFL[PyrS2]F[Bta]Q-NH2 (staple 1-4, 4-11, stapled peptide) [I-1402] ) reads 8.05

Field pEC50 (entry Ac-[αAllylPro]DL[B5(4)]DDAAFL[PyrS2″][Phe(2-Cl)][Bta]L-NH2 (staple 1-4, 4-11; also: staple isomer composition of earlier HPLC peak, stapled peptide) [I-1418] ) reads 6.97

Field pEC50 (entry Ac-[αAllylPro]DL[B5(4)]DDAAFL[PyrS2″][Phe(2-Cl)][Bta]L-NH2 (staple 1-4, 4-11; also: staple isomer composition of later HPLC peak, stapled peptide) [I-1419] ) reads 6.82

Field pEC50 (entry Ac-[αAllylPro]DS[B5(4)]DDAAFL[PyrS2][Phe(2-Cl)][Bta]L-NH2 (staple 1-4, 4-11, stapled peptide) [I-1423] ) reads 6.41

Field pEC50 (entry Ac-[αAllylPro]DN[B5(4)]DDAAFL[PyrS2″][Phe(2-Cl)][Bta]L-NH2 (staple 1-4, 4-11, stapled peptide) [I-1422] ) reads 6.41

Field: next binder
Field pEC50 (entry Ac-[αAllylPro]DT[B5(4)]DDAAFL[PyrS2][Phe(2-Cl)][Bta]L-NH2 (staple 1-4, 4-11, stapled peptide) [I-1424] ) reads 6.63

Sourced from patent US20240116985A1
